Values were extracted from the supplement of paper PMC11246515.

assay: total protein half-life in vivo (active degradation + dilution); higher = more stable protein; conditions: E. coli NCM3722 delta-clpP; growth: N-lim chemostat; doubling time 6 h
Kindly return yes (1) if reported total protein half-life in vivo is no lower than 4 h; return no (0) if it is lower.

Previously resolved entries follow.
[
  {
    "Sequence Input": "MKQHQSADNSQGQLYIVPTPIGNLADITQRALEVLQAVDLIAAEDTRHTGLLLQHFGINARLFALHDHNEQQKAETLLAKLQEGQNIALVSDAGTPLINDPGYHLVRTCREAGIRVVPLPGPCAAITALSAAGLPSDRFCYEGFLPAKSKGRRDALKAIEAEPRTLIFYESTHRLLDSLEDIVAVLGESRYVVLARELTKTWETIHGAPVGELLAWVKEDENRRKGEMVLIVEGHKAQEEDLPADALRTLALLQAELPLKKAAALAAEIHGVKKNALYKYALEQQG",
    "Qualitative Label": "yes (1)"
  },
  {
    "Sequence Input": "MISSLWIAKTGLDAQQTNMDVIANNLANVSTNGFKRQRAVFEDLLYQTIRQPGAQSSEQTTLPSGLQIGTGVRPVATERLHSQGNLSQTNNSKDVAIKGQGFFQVMLPDGSSAYTRDGSFQVDQNGQLVTAGGFQVQPAITIPANALSITIGRDGVVSVTQQGQAAPVQVGQLNLTTFMNDTGLESIGENLYTETQSSGAPNESTPGLNGAGLLYQGYVETSNVNVAEELVNMIQVQRAYEINSKAVSTTDQMLQKLTQL [P0ABX5]",
    "Qualitative Label": "yes (1)"
  },
  {
    "Sequence Input": "MAYFLDFDERALKEWRKLGSTVREQLKKKLVEVLESPRIEANKLRGMPDCYKIKLRSSGYRLVYQVIDEKVVVFVISVGKRERSEVYSEAVKRIL [P0C077]",
    "Qualitative Label": "no (0)"
  },
  {
    "Sequence Input": "MIEILHEYWKPLLWTDGYRFTGVAITLWLLILSVVIGGVLALFLAIGRVSSNKYIQFPIWLFTYIFRGTPLYVQLLVFYSGMYTLEIVKGTEFLNAFFRSGLNCTVLALTLNTCAYTTEIFAGAIRSVPHGEIEAARAYGFSTFKMYRCIILPSALRIALPAYSNEVILMLHSTALAFTATVPDLLKIARDINAATYQPFTAFGIAAVLYLIISYVLISLFRRAEKRWLQHVKPSSTH [P0AEU3]",
    "Qualitative Label": "yes (1)"
  },
  {
    "Sequence Input": "MSEKYIVTWDMLQIHARKLASRLMPSEQWKGIIAVSRGGLVPGALLARELGIRHVDTVCISSYDHDNQRELKVLKRAEGDGEGFIVIDDLVDTGGTAVAIREMYPKAHFVTIFAKPAGRPLVDDYVVDIPQDTWIEQPWDMGVVFVPPISGR [P0A9M5]",
    "Qualitative Label": "no (0)"
  }
]

Prompt: Has "MASQLTDAFARKFYYLRLSITDVCNFRCTYCLPDGYKPSGVTNKGFLTVDEIRRVTRAFARLGTEKVRLTGGEPSLRRDFTDIIAAVRENDAIRQIAVTTNGYRLERDVASWRDAGLTGINVSVDSLDARQFHAITGQDKFNQVMAGIDAAFEAGFEKVKVNTVLMRDVNHHQLDTFLNWIQHRPIQLRFIELMETGEGSELFRKHHISGQVLRDELLRRGWIHQLRQRSDGPAQVFCHPDYAGEIGLIMPYEKDFCATCNRLRVSSIGKLHLCLFGEGGVNLRDLLEDDTQQQALEARISAALREKKQTHFLHQNNTGITQNLSYIGG" a recorded total protein half-life in vivo greater than or equal to 4 h?
Completion: no (0)
